# merged literature set: pIC50 with UniProtKB P03372
pIC50: −log10 of the molar value.
assay metric: pIC50

Some solved entries appear below for comparison.
Cc1c(O)ccc2c1oc(=O)c1c(O)c(O)ccc12: 5.89
COc1ccc(-c2nc(Cl)cc(Oc3ccc(OCCN(C)C)cc3)n2)cc1: 5.22
Oc1ccc2c(c1)CCC1Oc3cc(O)ccc3N=C21 (stereo not given): 5.22
CCSC1=C(c2ccc(O)cc2)C(=O)c2ccc(O)cc21: 6.32
O=C1c2ccc(O)cc2C(=O)N1c1ccc(O)cc1: 7.08
CCN(CC)CCOc1ccc(Cn2c3ccccc3c3sc4cc(O)ccc4c32)cc1: 7.24

[a] COc1c(C)cc2c(=O)oc3c(C)c(O)ccc3c2c1C
[b] OC[C@@H]1CCCN1CCOc1ccc([C@@H]2Oc3ccc(O)cc3S[C@@H]2c2ccc(O)cc2)cc1
[c] COc1cc([C@@H]2C(=O)c3ccc(O)cc3O[C@@H]2c2ccc(OCCN3CCCCC3)cc2)ccc1O
Ascending by pIC50, please. Put the labels in the requested order and write them down.
a, c, b
(a: 5.38, c: 6.38, b: 8.41)

###

# merged literature set: pIC50 with Estrogen receptor (Homo sapiens, UniProt P03372)
# Sequence (P03372 whole entry): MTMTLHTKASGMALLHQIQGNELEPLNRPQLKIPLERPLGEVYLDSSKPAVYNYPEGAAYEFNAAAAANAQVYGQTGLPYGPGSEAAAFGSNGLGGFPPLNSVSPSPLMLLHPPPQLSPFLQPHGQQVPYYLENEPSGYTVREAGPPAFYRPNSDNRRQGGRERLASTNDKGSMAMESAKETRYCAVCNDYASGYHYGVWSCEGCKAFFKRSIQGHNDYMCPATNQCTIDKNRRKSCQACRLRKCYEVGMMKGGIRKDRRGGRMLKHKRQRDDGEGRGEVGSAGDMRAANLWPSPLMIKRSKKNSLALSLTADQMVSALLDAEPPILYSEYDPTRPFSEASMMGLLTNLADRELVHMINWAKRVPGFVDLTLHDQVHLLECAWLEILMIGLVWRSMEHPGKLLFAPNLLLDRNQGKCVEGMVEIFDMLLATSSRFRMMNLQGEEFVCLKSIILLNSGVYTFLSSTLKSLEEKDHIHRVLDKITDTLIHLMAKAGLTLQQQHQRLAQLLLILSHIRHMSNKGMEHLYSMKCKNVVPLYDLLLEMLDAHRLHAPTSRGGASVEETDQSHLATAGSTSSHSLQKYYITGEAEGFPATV
pIC50: −log10 of the molar value.
assay metric: pIC50

Some solved entries appear below for comparison.
O=C(Nc1ccc2cc[nH]c2c1)c1ccc(Br)cc1: 8.33
CCOC(=O)C(Cc1ccc(C#CCCCC[C@@H]2Cc3cc(O)ccc3[C@H]3CC[C@]4(C)[C@@H](O)CC[C@H]4[C@H]23)cc1)C(=O)OCC: 6.90
COc1cc2oc(-c3ccc(O)cc3O)cc2cc1O: 7.34
C=Cc1cc(O)cc2ccc(-c3ccc(O)c(F)c3)cc12: 6.28
CC#Cc1cc(O)cc2ccc(-c3ccc(O)c(F)c3)cc12: 6.74

[a] CC/C(=C(\c1ccccc1)c1cccc(OCCN(C)C)c1)c1ccccc1
[b] Oc1ccc([C@H]2Sc3cc(O)ccc3S[C@H]2c2ccc(OCCN3CCCCC3)c(Br)c2)cc1
Would you let me know which has the greater pIC50 value, a or b ? Mark your answer with the label of the selected entry.
b
(b: 8.30, a: 6.59)

###

# merged literature set: pIC50 with Estrogen receptor (Homo sapiens, UniProt P03372)
pIC50: −log10 of the molar value.
assay metric: pIC50

Oc1ccc(-c2nc3cc(O)cc(/C=C\Br)c3o2)cc1: 5.33

[P] CN(C)CCOc1ccc(Nc2nc(-c3ccc(O)cc3)nc(Cl)c2-c2ccccc2)cc1
[Q] CC/C(=C(\c1ccc(O)cc1)c1cccc(OCCCN2CCCC2)c1)c1ccccc1
[R] CC/C(=C(\c1ccccc1)c1cccc(OCCCN2CCCCC2)c1)c1ccccc1
[S] Cc1c(-c2ccc(O)cc2)nn(-c2ccc(O)cc2)c1-c1ccc(/C=C/C(=O)N2CCCCC2)cc1
Ascending by pIC50, please. Put the labels in the requested order and write them down.
P, S, R, Q
(P: 5.47, S: 6.00, R: 6.48, Q: 7.97)

[P] Oc1ccc(-c2ccc3c(-c4ccccc4)c(O)ccc3c2)cc1
[Q] O=C1C(c2ccc(O)cc2)=C(c2ccccc2)c2ccc(O)cc21
[R] N#Cc1cc(O)cc2ccc(-c3ccc(O)c(F)c3)cc12
[S] Oc1ccc2c(-c3ccccc3O)noc2c1
[T] O=C(C1=C(O)C(=O)N(c2ccccc2O)C1c1ccc([N+](=O)[O-])cc1)c1ccccc1 (stereo unspecified)
Sort by pIC50, descending. Put the labels in the requested order and write them down.
Q, R, P, S, T

[A] C=CCc1cc(O)cc2nc(-c3ccc(O)cc3)oc12
[B] Oc1ccc(-c2ccc3c(Cl)c(O)ccc3c2)c(Cl)c1
Lower value for measured pIC50? Options: A , B Mark your answer with the label of the selected entry.
A

[P] Cc1cc(O)cc2c1-c1ccc(O)c(C)c1OC2
[Q] CC1Oc2cc(O)cc(O)c2N=C1c1ccc(O)cc1 (single isomer, unassigned)
Lower value for measured pIC50? Options: P , Q Mark your answer with the label of the selected entry.
Q
(Q: 5.55, P: 5.99)
